Target system: GSK3b (GST-full length GSK3b) (Homo sapiens (Human))
Sequence (P49841 whole entry): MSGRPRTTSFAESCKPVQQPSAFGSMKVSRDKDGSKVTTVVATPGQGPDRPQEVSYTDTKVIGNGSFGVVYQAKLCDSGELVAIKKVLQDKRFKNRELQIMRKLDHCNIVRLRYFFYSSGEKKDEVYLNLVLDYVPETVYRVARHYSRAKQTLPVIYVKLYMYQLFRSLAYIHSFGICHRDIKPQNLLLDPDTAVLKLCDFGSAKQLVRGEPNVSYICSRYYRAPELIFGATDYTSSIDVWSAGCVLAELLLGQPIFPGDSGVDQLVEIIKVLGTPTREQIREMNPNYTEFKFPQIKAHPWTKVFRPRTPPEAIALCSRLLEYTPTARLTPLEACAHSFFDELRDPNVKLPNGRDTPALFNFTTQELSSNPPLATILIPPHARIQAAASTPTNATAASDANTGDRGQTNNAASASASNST
Method summary: GSK3b TR-FRET kinase assay
Format: biochemical
Test parameters: 1 nM GSK3b, 2 μM ATP, 30 minute preincubation, Table 16; read-out: GSK3-B TR-FRET BIOCHEMICAL (TR-FRET)
pIC50: −log10 of the molar value.
Each entry below lists one item and its recorded pIC50 value.

Task: Record request: pIC50 value, item Cn1cc(S(=O)(=O)N2CC[C@]3(C2)C2=C(CC(C)(C)CC2=O)Nc2n[nH]cc23)cn1 [Compound 951725]
Result: ≥ 7.00

Task: Record request: pIC50 value, item CC1(C)CC(=O)C2=C(C1)Nc1n[nH]cc1C21CCN(S(=O)(=O)c2cnn(C(C)(C)C)c2)CC1 [Compound 945677]
Result: 6.00 to 7.00

Task: Record request: pIC50 value, item CCC1(c2cccc(-c3c(F)cncc3OC)c2)C2=C(Nc3n[nH]cc31)C(F)C(C)(C)CC2=O (stereo not drawn) [Compound 948547]
Result: ≥ 7.00

Task: Record request: pIC50 value, item CC1CCC12C1=C(CC(C)(C)CC1=O)Nc1n[nH]cc12 (stereo not drawn) [Compound 949640]
Result: 5.30 to 6.00

Task: Record request: pIC50 value, item CC1(C)CC(=O)C2=C(C1)Nc1n[nH]cc1C21CCN(S(=O)(=O)c2cnnn2-c2ccccc2)CC1 [Compound 947466]
Result: 6.00 to 7.00

Task: Record request: pIC50 value, item CCC1(c2cccc(C(F)(F)F)c2)C2=C(Nc3n[nH]cc31)C(C)(C)N(C)C2=O (stereo not drawn) [Compound 913198]
Result: 6.00 to 7.00

Task: Record request: pIC50 value, item CCC1(c2cccc(-c3cn(C)nc3C)c2)C2=C(Nc3n[nH]cc31)C(F)C(C)(C)CC2=O (single isomer, unassigned) [Compound 947652]
Result: 6.00 to 7.00

Task: Record request: pIC50 value, item CCC1(c2cccc(-c3ccncc3C)c2)C2=C(CC(C)(C)CC2=O)Nc2n[nH]c(C(F)(F)F)c21 (stereo not drawn) [Compound 945527]
Result: ≥ 7.00

Task: Record request: pIC50 value, item CCn1nccc1-c1cccc(C2(CC)C3=C(CC(C)(C)CC3=O)Nc3n[nH]cc32)c1 (stereo not drawn) [Compound 946090]
Result: < 5.30

----------
Target system: GSK3α (GST-full length GSK3α) (Homo sapiens (Human), UniProt P49840)
Sequence (P49840 whole entry): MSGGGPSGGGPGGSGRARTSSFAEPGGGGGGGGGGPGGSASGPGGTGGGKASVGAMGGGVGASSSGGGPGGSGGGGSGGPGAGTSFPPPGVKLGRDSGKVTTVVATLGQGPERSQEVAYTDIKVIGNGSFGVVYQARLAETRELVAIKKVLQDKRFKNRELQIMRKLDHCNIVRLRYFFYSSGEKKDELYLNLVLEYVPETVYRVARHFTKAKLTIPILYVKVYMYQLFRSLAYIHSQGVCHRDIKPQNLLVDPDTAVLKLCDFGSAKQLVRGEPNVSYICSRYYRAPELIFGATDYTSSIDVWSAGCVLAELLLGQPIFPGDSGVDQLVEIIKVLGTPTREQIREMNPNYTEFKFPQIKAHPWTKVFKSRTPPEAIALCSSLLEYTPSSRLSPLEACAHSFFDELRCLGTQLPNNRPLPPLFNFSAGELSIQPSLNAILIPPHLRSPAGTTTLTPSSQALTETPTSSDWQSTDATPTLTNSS
Method summary: GSK3α TR-FRET kinase assay
Assay type: biochemical
Test parameters: 1 nM GSK3α, 4 μM ATP, 30 minute preincubation, Table 16; read-out: GSK3-A TR-FRET BIOCHEMICAL (TR-FRET); IC50
pIC50: −log10 of the molar value.
Each entry below lists one item and its recorded pIC50 value.

COCCN1CC2(C1)C1=C(CC(C)(C)CC1=O)Nc1n[nH]cc12	< 5.30
CCC1(c2cccc(-c3ccnc(C)c3C)c2)C2=C(CC(C)(C)CC2=O)Nc2n[nH]cc21 (centres unmarked)	≥ 7.00
CCC1(c2cccc(NS(C)(=O)=O)c2)C2=C(CC(C)(C)CC2=O)Nc2n[nH]cc21 (centres unmarked) [Compound 927341]	5.30 to 6.00

The record that follows has no pIC50 shown yet.
Task: Record request: pIC50 value, item CC1(C)CC(=O)C2=C(C1)Nc1n[nH]cc1C21CN(c2cccnc2)C1
Result: 5.30 to 6.00

The measured values listed here are drawn from patent US20250313563A1.
